studyTarget: T1, human GITR (amino acids M1-V241, NCBI Accession #NP_004186.1) expressed on cells (human, UniProt Q9Y5U5 26-241)
T1 sequence: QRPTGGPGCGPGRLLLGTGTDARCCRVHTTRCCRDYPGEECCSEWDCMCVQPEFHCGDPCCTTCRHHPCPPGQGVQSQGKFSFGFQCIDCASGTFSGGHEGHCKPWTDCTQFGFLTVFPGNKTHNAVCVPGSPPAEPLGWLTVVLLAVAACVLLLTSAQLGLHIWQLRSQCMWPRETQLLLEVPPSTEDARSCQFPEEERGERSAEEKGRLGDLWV
experimentalProtocol: cell-based or functional assay
assayEndpoint: EC50, hGITR activation, NF-kB-Luc, non-anchored (nM)
Value expressed in nM; do not type the unit.

{"columns": ["binder", "unitTag", "measurement"],
 "data": [
  ["H4H14470P (antibody, human IgG4, V domains shown, human IgG4 (H4H)) VH: QVQLVESGGGVVQPGRSLRLSCAASGFTVRNYGMHWVRQAPGKGLEWVAVIWYDGSNKYYADSVKGRFTISRDNSKNTLFLQMNSLRAEDTAVYYCARGGELVRGDYYYGMDVWGQGTTVTVSS VL: DIQMTQSPSSLSASVGDRVTITCRASQGIRNDLGWYQQKPGKAPKRLIYGASSLQSGVPSRFSGSGSGTEFTLTISSLQPEDFATYYCLQHNSYPYTFGQGTKLEIK", "nM", 1.2],
  ["H1H14474P (antibody, human IgG1, V domains shown, human IgG1 (H1H)) VH: QVQLVESGGGVVQPGRSLRLSCAASGFTFSSYGMDWVRQAPGKGLEWVAVIWYPGSNKYYADSVKGRFTVSRDNSKNTLYLQMNSLRAEDTAVYYCARDGELGLDYYSGMDVWGQGTTVTVSS VL: DIQMTQSPSSLSASVGDRVTITCRASQGIRNDLNWYQQKPGKAPKRLINGASSLQSGVPSRFSGSGSGTEFTLTISSLQPEDFATYYCLQLNSYPRTFGQGTKVEIK", "nM", 1.2],
  ["H1H14491P (antibody, human IgG1, V domains shown, human IgG1 (H1H)) VH: QVQLVESGGGVVQPGRSLRLSCVASGFTFSDYGMHWVRQAPGKGLEWVAVIWYEGSNKYYADSVTGRFTISRDNSKNTLFLQMNSLKAEDTAEYYCAKDGGQLAYQYYYGMDVWGQGTTVTVSS VL: AIQMTQSPSSLSASVGDRVTLTCRASQGIRNDLGWYQQKPGKAPKSLIYAASNLQSGVPSRFSGSGSGTDFTLTISSLQPEDSATYYCLQDYNYPRTFGQGTKVEIK", "nM", 2],
  ["H4H14516P (antibody, human IgG4, V domains shown, human IgG4 (H4H)) VH: EVQLVESGGGLVQPGGSLRLSCAASGFTFSNYEMYWVRQAPGKGLEWVSYISSSGTTIYYADSVKGRFSVSRENARSSLYLQMNSLRVEDSAVYFCAKYNWNSFYGLDVWGQGTTVTVSS VL: AIQMTQSPSSLSASVGDRVTITCRASQDIRNDLGWYQQKPGKAPKLLISAASSLQGGVPSRFSGSGSGTDFTLTISSLQPADFATYYCLQEYNYALTFGGGTKVEIK", "nM", 0.8]
]}

Incoming: Given the entry H1H14524P (antibody, human IgG1, V domains shown, human IgG1 (H1H)) VH: QVQLVESGGGVAQPGRSLSLSCAASGFTFSDYGMHWVRQAPGKGLEWVAVIWYAGSNKYYADSVKDRFTISRDNSKNTLYLQMRSLRVEDTAVYYCARGGELRLDYYSGLDVWGQGTTVTVSS VL: DIQMTQSPSSLSASVGDRVTVTCRASQGIRSDLGWYQQKPGKAPKRLIYAASSFQSGVPSRFSGSGSGTEFTLTISSLHPEDFATYYCLQSNNYPWTFGQGTKVEIK , report its measured EC50, hGITR activation, NF-kB-Luc, non-anchored.
Outgoing: 2.2

Incoming: What about this binder? H4H14521P (antibody, human IgG4, V domains shown, human IgG4 (H4H)) VH: EVQLVESGGGLVQPGGSLRLSCAASGFTFRVYEMNWVRQAPGKGLEWISYIGSSGFTIYYADSVKGRFTISRDNAKNSLFLQLNSLRAEDTAVYYCARGWNDGVPNYLGMDVWGQGTTVTVSS VL: DIQMTQSPSSLSASVGDRVTITCQASQDINKYLNWYQQKPGKAPKLLIYDASNLETGVPSRFSGSGSGTDFTFTISSLQPEDIARYHCQQYDKIPLTFGGGTKVEIK
Outgoing: 0.4

Incoming: And the next one, H1H14520P (antibody, human IgG1, V domains shown, human IgG1 (H1H)) VH: QVQLVESGGGVVQPGRSLRLSCAASGFTFSSFGMHWVRQAPGKGLEWVAVISYDGRNRYYADSVKGRFTISRDNSKNTLYLQMNSLSAEDTAMFYCAKDGFGNSFDYWGQGTLVTVSS VL: DVVMTQSPLSLPVTLGQPASISCRSSQSLLYSDGNTYLTWFQQRPGQSPRRLIYKVSNRDSGVPDRFSGSGSGTDFTLTISRVEAEDVGIYYCMQGTHWPWTFGQGTKVEIK ?
Outgoing: 1.1

Incoming: Input H1H14495P (antibody, human IgG1, V domains shown, human IgG1 (H1H)) VH: QVQLVESGGGAVQPGTSLRLSCAASGFTFSSFGMHWVRQAPGKGLEWVSVIWYEGSNKYYADSVKGRFTISRDNSRNTLSLQMDSLRVEDTAVYYCARGGELGVNYYYDMDVWGQGTTVTVSS VL: DIQMTQSPSSLSASVGDRVTITCRASQDIKNDLGWFQQKAGKAPKRLFYATSSLQSGVPSRFSGSGSGTEFTLTISSLQPEDFATYYCLQVHSYPRTFGQGTKVEIK
Outgoing: 1.3

Incoming: Now consider H4H14469P (antibody, human IgG4, V domains shown, human IgG4 (H4H)) VH: QVQLVESGGGVVQPGGSLRLSCAVSGFTFSDYGMHWVRQVPGAGLEWVAVIYYEGSNKYYADSVKGRFTISRDNSKNTLYLQMNSLRVEDTSMYFCARGPLLGGNFYSYLMDVWGQGTTVTVSS VL: AIQMTQSPSSLSASVGDRVTITCRASQGIRNGLGWYQQKPGKAPKLLIYTASSLQSGVPSRFSGSGSGTDFTLTISSLQPEDFATYYCLQDYNYPFSFGPGTKVDIK .
Outgoing: 2.3

Incoming: Try this binder next: H1H14512P (antibody, human IgG1, V domains shown, human IgG1 (H1H)) VH: QVQLVESGGGVVQPGRSLRLSCAVSGFTLSSYGMDWVRQAPGKGLEWVAVIWYDGSNKYYSDSVKGRFTISRDNSKNTLFLQMNSLRADDTAVYYCARDGELGLDYYSGMDVWGQGTTVTVSS VL: DIQMTQSPSSLSASVGDRVTITCRASQDIRNDLGWYQQKPGKAPKRLIYGASSLQSGVPSRFSGSGSGTEFTLTISSLQPEDFATYYCLQLNSYPRTFGQGTKVEIK
Outgoing: 1.2

Incoming: What do you have for H4H14508P (antibody, human IgG4, V domains shown, human IgG4 (H4H)) VH: QVQLVESGGGVVQPGRSLRLSCAASGLTVSSYVMHWVRQAPGKGLEWVAIIWYDGSNKYYGDSVKGRFTISRDNSKKTLYLQMNSLRAEDTAVYYCARGRPLSSSSSDYYGLDVWGQGTTVTVSS VL: AIQMTQSPSSLSASVGDRVTIICRASQGIRNDLGWYQQKPGKAPNLLIYAASSLQSGVPSRFSGSGSGTDFTLTISSLQPEDFATYYCLQDYNYPWTFGQGTKVEIK ?
Outgoing: 1.2

The reported measurements were obtained from patent US20170355774A1.
